So I've got a bunch of compounds here, and I need their activity score values.
Test: Activators via SNCA 5'UTR binding, MLPCN (AID 1814)
Settings: alpha-synuclein 5'UTR reporter, activators screen; stronger effect = lower value; tested at 7.5 µM
About 22,000 (7.3%) of roughly 300,000 compounds were called active. About 2% were inconclusive and are not listed. The full list was thinned out, with actives kept by preference.
Numbers only; they are read as %.

Q: Would you kindly share the measured activity score for `O=C(Cn1cnc2c(cnn2-c2ccccc2)c1=O)NCc1ccccc1` ?
Result: -148

Q: Would you kindly share the measured activity score for `COC(=O)c1ccc(Sc2ccc(F)cc2)c(N)c1` ?
Result: -107

Q: Would you kindly share the measured activity score for `Cc1cc(C(=O)N/N=C/c2ccccc2[N+](=O)[O-])c(C)o1` ?
Result: -112

Q: Would you kindly share the measured activity score for `CCC(C)(C)c1ccc(Oc2ccc(NC(=O)COC(=O)C3=COCCO3)cc2)cc1` ?
Result: 90.6

Q: Would you kindly share the measured activity score for `Nc1ccc(-c2nnc(-c3ccc(-c4ccccc4)cc3)o2)cc1` ?
Result: -217

Q: Would you kindly share the measured activity score for `O=C(N/N=C/c1ccc(OCc2ccccc2)cc1)c1ccc(O)cc1` ?
Result: -70.7

Q: Would you kindly share the measured activity score for Cc1cc2oc3ccc(NCCC4CCCN4C)cc3c(=O)c2cc1C (configuration not stated) ?
Result: -102
